These entries and their values trace back to patent US20240002495A1.

Assay target: T1, recombinant human IL-33 protein (residues 112 to 270) (ILC0701, ATGen Co. Ltd) (human, UniProt O95760 112-270)
T1 construct: bought protein
T1 sequence: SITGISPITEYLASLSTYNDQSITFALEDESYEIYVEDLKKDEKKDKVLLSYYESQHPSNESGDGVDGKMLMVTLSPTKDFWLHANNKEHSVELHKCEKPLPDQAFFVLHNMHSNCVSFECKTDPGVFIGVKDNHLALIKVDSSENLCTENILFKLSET
Test details: KinExA in PBS, neutral-purified IgG
Measured attribute: pKd
pKd is defined as minus the log10 of a concentration measured in mol/L.

Binder	pKd
A10-1C04 (IgG) (antibody, V domains shown, tested as neutral-purified and as alkaline-purified antibody; also called V1; IGN1) VH: EVQLLESGGGLVQPGGSLRLSCAASGFTFSDYYMNWVRQAPGKGLEWVSSISRYSSYIYYADSVKGRFTISRDNSKNTLYLQMNSLRAEDTAVYYCARDIGGMDVWGQGTLVTVSS VL: QSVLTQPPSASGTPGQRVTISCTGSSSNIGAVYDVHWYQQLPGTAPKLLIYRNNQRPSGVPDRFSGSKSGTSASLAISGLRSEDEADYYCQTYDSSRWVFGGGTKLTVL	9.78

Task item: Fill in: pKd of A25-2C02 (IgG) (antibody, V domains shown, tested as neutral-purified and as alkaline-purified antibody; also called V15; IGN15) VH: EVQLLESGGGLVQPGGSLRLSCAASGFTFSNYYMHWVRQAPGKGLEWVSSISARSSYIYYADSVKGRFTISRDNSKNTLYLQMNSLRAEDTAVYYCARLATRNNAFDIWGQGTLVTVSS VL: QSVLTQPPSASGTPGQRVTISCSGSSSNIGRNAVNWYQQLPGTAPKLLIYASNMRVSGVPDRFSGSKSGTSASLAISGLRSEDEADYYCWAWDDSQKVGVFGGGTKLTVL is ___
Reply: 12.14

Task item: Fill in: pKd of A26-1F02 (IgG) (antibody, V domains shown, tested as neutral-purified and as alkaline-purified antibody; also called V18; IGN18) VH: EVQLLESGGGLVQPGGSLRLSCAASGFTFSNYYMHWVRQAPGKGLEWVSSISARSSYLYYADSVKGRFTISRDNSKNTLYLQMNSLRAEDTAVYYCARLATRHVAFDIWGQGTLVTVSS VL: QSVLTQPPSASGTPGQRVTISCSGSSSNIGNNAVNWYQQLPGTAPKLLIYASNMRRPGVPDRFSGSKSGTSASLAISGLRSEDEADYYCEAWDDSQKAVVFGGGTKLTVL is ___
Reply: 10.97

Task item: Fill in: pKd of A25-3H04 (IgG) (antibody, V domains shown, tested as neutral-purified and as alkaline-purified antibody; also called V17; IGN17) VH: EVQLLESGGGLVQPGGSLRLSCAASGFTFSRYYMHWVRQAPGKGLEWVSSISAQSSHIYYADSVEGRFTISRDNSKNTLYLQMNSLRAEDTAVYYCARLATRQNAFDIWGQGTLVTVSS VL: QSVLTQPPSASGTPGQRVTISCSGSSSNIGRNAVNWYQQLPGTAPKLLIYASNMRRSGVPDRFSGSKSGTSASLAISGLRSEDEADYYCSAWDDSQKVVVFGGGTKLTVL is ___
Reply: 11.27
